B1: ZNF75A (parent)
chain: RTHTGEQPYTCSICRRNFSRRSSL

variants of: B1; assay: protein stability index of a GFP-peptide fusion (GPS, HEK-293T) (PSI 1-6); higher = more stable; conditions: c terminus: a fixed tail appended;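 also: lentivirally expressed fusions sorted by FACS into six bins by GFP to DsRed ratio, PSI derived from sequencing read proportions per bin multiplied by bin number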
metric: protein stability index
Give a plain numeric answer without units written out.

R16Q    2.99

So what does the record say about protein stability index for `P8N` ?
3.01

For `H3K` then?
3.06
